molecular target: recombinant human 11 β-HSD1 (Homo sapiens, UniProt P28845); construct: made in house; host or cells: E. coli; experiment: 11 β-HSD1 SPA Assay (Scintillation Proximity Assay); assay type: biochemical
Sequence (P28845 whole entry): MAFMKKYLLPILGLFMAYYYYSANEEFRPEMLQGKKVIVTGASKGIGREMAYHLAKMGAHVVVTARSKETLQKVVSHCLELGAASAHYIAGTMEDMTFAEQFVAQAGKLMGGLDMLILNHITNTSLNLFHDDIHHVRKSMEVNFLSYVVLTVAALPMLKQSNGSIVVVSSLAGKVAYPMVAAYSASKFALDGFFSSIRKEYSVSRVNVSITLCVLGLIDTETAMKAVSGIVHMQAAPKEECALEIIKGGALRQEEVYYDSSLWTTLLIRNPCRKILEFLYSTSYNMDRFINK
pIC50: −log10 of the molar value.
ATTRIBUTE MEASURED: pIC50

MOLECULE: C[C@H](NC(=O)c1ccc(N2C3CCC2CC(NC(=O)C(C)(C)Oc2ccc(F)cc2C(F)F)C3)nc1)C(F)(F)F (stereo partly drawn) [Example 418]
RECORDED VALUE: > 6.70
--
MOLECULE: CC(C)(Oc1ccc(Cl)cc1S(C)(=O)=O)C(=O)N[C@H]1C[C@H]2CC[C@@H](C1)N2c1ccc(S(N)(=O)=O)cn1 [Example 293]
RECORDED VALUE: > 5.70
--
MOLECULE: CC(C)(Oc1ccccc1C(F)(F)F)C(=O)N[C@H]1C[C@H]2CC[C@@H](C1)N2c1ccc(C(=O)NCC(F)(F)F)cn1 [Example 112]
RECORDED VALUE: > 6.70
--
MOLECULE: CC(C)(Oc1ccc(Cl)cc1Cl)C(=O)N[C@H]1C[C@H]2CC[C@@H](C1)N2c1cccc(S(C)(=O)=O)c1 [Example 156]
RECORDED VALUE: > 5.70
--
MOLECULE: CC(C)(Oc1ccc(-c2ccccc2)cc1Cl)C(=O)N[C@H]1C[C@H]2CC[C@@H](C1)N2c1ccc(C(N)=O)cn1 [Example 266]
RECORDED VALUE: > 6.70
--
MOLECULE: CC(C)(Oc1ccc(F)c(F)c1)C(=O)N[C@H]1C[C@H]2CC[C@@H](C1)N2c1ccc(C(=O)NCC(F)(F)F)cc1 [Example 210]
RECORDED VALUE: > 6.70

* * *

# reported pIC50; entries follow
molecular target: recombinant human 11 β-HSD1 (Homo sapiens); assay: 11 β-HSD1 SPA Assay (Scintillation Proximity Assay)
pIC50: −log10 of the molar value.
ATTRIBUTE MEASURED: pIC50

MOLECULE: CC(C)(Oc1ccc(C(F)(F)F)cc1)C(=O)N[C@H]1C[C@H]2CC[C@@H](C1)N2c1ccc(C(=O)NCC(F)(F)F)cn1
TARGET: recombinant human 11 β-HSD1 (Homo sapiens)
ATTRIBUTE MEASURED: pIC50
RECORDED VALUE: > 6.70
--
MOLECULE: CC(C)(Oc1ccc(Cl)cc1Cl)C(=O)N[C@H]1C[C@H]2CC[C@@H](C1)N2C(=O)c1ccc(C(N)=O)cc1
TARGET: recombinant human 11 β-HSD1 (Homo sapiens)
ATTRIBUTE MEASURED: pIC50
RECORDED VALUE: > 5.70
--
MOLECULE: CC(C)(Oc1ccc(Cl)cc1-c1ccccc1)C(=O)N[C@H]1C[C@H]2CC[C@@H](C1)N2c1ccc(C(N)=O)cn1
TARGET: recombinant human 11 β-HSD1 (Homo sapiens)
ATTRIBUTE MEASURED: pIC50
RECORDED VALUE: > 6.70
--
MOLECULE: C[C@H](NC(=O)c1ccc(N2C3CCC2CC(NC(=O)C(C)(C)Oc2ccc(Cl)cc2S(C)(=O)=O)C3)nc1)C(F)(F)F (stereo partly drawn)
TARGET: recombinant human 11 β-HSD1 (Homo sapiens)
ATTRIBUTE MEASURED: pIC50
RECORDED VALUE: > 5.70
--
MOLECULE: CC(C)c1cc(Cl)ccc1OC(C)(C)C(=O)N[C@H]1C[C@H]2CC[C@@H](C1)N2c1ccc(C(N)=O)cn1
TARGET: recombinant human 11 β-HSD1 (Homo sapiens)
ATTRIBUTE MEASURED: pIC50
RECORDED VALUE: > 6.70
--
MOLECULE: CC(C)(Oc1cc(C(C)(C)C(N)=O)c(Cl)cc1Cl)C(=O)N[C@H]1C[C@H]2CC[C@@H](C1)N2c1ccc(C(=O)NCC(F)(F)F)cn1
TARGET: recombinant human 11 β-HSD1 (Homo sapiens)
ATTRIBUTE MEASURED: pIC50
RECORDED VALUE: > 6.70
